tested on: Staphylococcus aureus; assay: Antimicrobial activity against methicillin-resistant Staphylococcus aureus isolate 98 by two-fold dilution method; format: functional
ASSAY_METRIC: MIC

Consider the reported MIC for these compounds:
COMPOUND: CC1(C)C(=O)[C@@H]2C[C@@]34O[C@]2(O)[C@]2(COC(=O)C[C@@H]12)[C@H]3CC[C@]1(C)[C@H]4CC(=O)O[C@H]1c1ccoc1 [SENEGANOLIDE]
MIC: > 50 µg/mL
//
COMPOUND: C=C1[C@H]2CC[C@]3(C)[C@H](c4ccoc4)OC(=O)C[C@@]13O[C@H]1CC(=O)OC(C)(C)[C@@H](CC(=O)OC)[C@@]12C [METHYL IVORENSATE]
MIC: > 50 µg/mL

Next:
Recorded result, `CC(=O)O[C@H]1C[C@@H](O)C(C)(C)[C@@H]2C[C@@H](O)[C@]3(C)[C@H](CC[C@@]4(C)[C@@H](c5ccoc5)OC(=O)[C@H]5O[C@@]534)[C@@]12C` , MIC: > 50 µg/mL
